Tgt: HLA-A*69:01
Test Name: IEDB peptide-MHC binding, purified MHC/direct/fluorescence; filed as Kd, often an IC50 or EC50 that approximates it; bounds were set here for any values at or beyond the usual limits of such assays
Experimental Parameters: source organism: Salmonella enterica subsp. enterica serovar Typhi
Assay Metric: pKd
Give only the number. pKd is defined as minus log10 of concentration in molar units.

Request: Field request: pKd | item: FIKNPACTV
Response: 6.81

----------
Tgt: HLA-A*03:01
Test Name: IEDB peptide-MHC binding, purified MHC/direct/fluorescence; filed as Kd, often an IC50 or EC50 that approximates it; bounds were set here for any values at or beyond the usual limits of such assays
Experimental Parameters: source organism: Burkholderia lata
Assay Metric: Kd

Request: Field request: Kd | item: SINDPRWGR
Response: ≥ 20 µM

----------
Tgt: HLA-B*08:01
Test Name: IEDB peptide-MHC binding, purified MHC/direct/fluorescence; filed as Kd, often an IC50 or EC50 that approximates it; bounds were set here for any values at or beyond the usual limits of such assays
Experimental Parameters: source organism: Influenza A virus (A/Switzerland/8808/2002(H1N1))
pKd: −log10 of the molar value.
Assay Metric: pKd

Request: Field request: pKd | item: VPAQNAIST
Response: ≤ 4.70

----------
Tgt: HLA-A*01:01
Test Name: IEDB peptide-MHC binding, purified MHC/competitive/radioactivity; filed as Kd, often an IC50 or EC50 that approximates it; bounds were set here for any values at or beyond the usual limits of such assays
Experimental Parameters: source organism: Mammarenavirus whitewaterense
Assay Metric: pKd
Give only the number. pKd is defined as minus log10 of concentration in molar units.

Request: Field request: pKd | item: DHHFTPQII
Response: 7.21

----------
Property: Kd; scope: individual sequences
Tgt: HLA-A*01:01
Test Name: IEDB peptide-MHC binding, purified MHC/competitive/radioactivity; filed as Kd, often an IC50 or EC50 that approximates it; bounds were set here for any values at or beyond the usual limits of such assays
Experimental Parameters: source organism: SARS coronavirus Tor2
Write the value in µM as a bare number.

Recorded Kd, per entry:
Residues: FYLYLTFYF
Unit Spec: µM
Kd: 3.69
//
Residues: YSELRPDTRY
Unit Spec: µM
Kd: 0.00622
//
Residues: ISAGFSLWIY
Unit Spec: µM
Kd: 0.0523
//
Residues: NSGPDDQIGY
Unit Spec: µM
Kd: 1.01
//
Residues: FIAQSKGLY
Unit Spec: µM
Kd: 0.465

Request: Field request: Kd | item: MSFLEKDAPY
Response: 0.0644

Request: For PTLVPQEHY then?
Response: 9.07

Request: For TTTGIGYQPY then?
Response: 0.126

Request: For ACADGTRHTY then?
Response: 2.16

----------
Tgt: HLA-A*02:01
Test Name: IEDB peptide-MHC binding, purified MHC/competitive/fluorescence; filed as Kd, often an IC50 or EC50 that approximates it; bounds were set here for any values at or beyond the usual limits of such assays
Experimental Parameters: source organism: Vibrio vulnificus YJ016
Assay Metric: Kd (nM)
Write the value in nM as a bare number.

Request: Field: Kd (HLA-A*02:01). Entry: EPADHLAIM
Response: 691

----------
Tgt: HLA-A*02:01
Test Name: IEDB peptide-MHC binding, purified MHC/direct/fluorescence; filed as Kd, often an IC50 or EC50 that approximates it; bounds were set here for any values at or beyond the usual limits of such assays
Experimental Parameters: source organism: Mycobacterium tuberculosis variant bovis
Assay Metric: Kd (nM)
Write the value in nM as a bare number.

Request: Field request: Kd | item: GVFEGIAVL
Response: 15.5

----------
Tgt: HLA-A*01:01
Test Name: IEDB peptide-MHC binding, purified MHC/direct/fluorescence; filed as Kd, often an IC50 or EC50 that approximates it; bounds were set here for any values at or beyond the usual limits of such assays
Experimental Parameters: source organism: Cowpox virus
Property: Kd; scope: individual sequences

Residues: YHRPLTGYM
Recorded Result: ≥ 20 µM

Okay, now this sequence:
Request: Field request: Kd | item: VYSFDESSF
Response: ≥ 20 µM

----------
Tgt: HLA-A*03:01
Test Name: IEDB peptide-MHC binding, purified MHC/competitive/fluorescence; filed as Kd, often an IC50 or EC50 that approximates it; bounds were set here for any values at or beyond the usual limits of such assays
Experimental Parameters: source organism: Bacillus cereus G9241
pKd: −log10 of the molar value.
Assay Metric: pKd

Request: Field: pKd (HLA-A*03:01). Entry: ILIFLRNFR
Response: ≤ 4.70

----------
Tgt: HLA-A*02:17
Test Name: IEDB peptide-MHC binding, purified MHC/competitive/radioactivity; filed as Kd, often an IC50 or EC50 that approximates it; bounds were set here for any values at or beyond the usual limits of such assays
Experimental Parameters: source organism: Dengue virus 2 Jamaica/1409/1983
Assay Metric: pKd
Give only the number. pKd is defined as minus log10 of concentration in molar units.

Request: Field request: pKd | item: KLFMALVAFL
Response: 7.29

----------
Tgt: HLA-B*39:01
Test Name: IEDB peptide-MHC binding, purified MHC/direct/fluorescence; filed as Kd, often an IC50 or EC50 that approximates it; bounds were set here for any values at or beyond the usual limits of such assays
Experimental Parameters: source organism: Mycobacterium tuberculosis variant bovis
Assay Metric: Kd (nM)
Write the value in nM as a bare number.

Request: Field request: Kd | item: HQAIISDVL
Response: 42.4

----------
Tgt: HLA-A*03:01
Test Name: IEDB peptide-MHC binding, purified MHC/competitive/fluorescence; filed as Kd, often an IC50 or EC50 that approximates it; bounds were set here for any values at or beyond the usual limits of such assays
Experimental Parameters: source organism: Yersinia pestis Nepal516
Property: Kd; scope: individual sequences

Residues: YADGGQWYN
Kd: ≥ 20 µM

Okay, now this sequence:
Request: Field request: Kd | item: ILHRLAPWI
Response: ≥ 20 µM

----------
Property: pKd; scope: individual sequences
Tgt: HLA-A*31:01
Test Name: IEDB peptide-MHC binding, purified MHC/competitive/radioactivity; filed as Kd, often an IC50 or EC50 that approximates it; bounds were set here for any values at or beyond the usual limits of such assays
Experimental Parameters: source organism: Dengue virus 1 Brazil/97-11/1997
pKd: −log10 of the molar value.

Recorded pKd, per entry:
Residues: YFWQKKKQR
Recorded Result: 5.65
//
Residues: KKNGAIKVLR
Recorded Result: ≤ 4.15
//
Residues: FVCRRTFVDR
Recorded Result: ≤ 4.15

Request: Field: pKd (HLA-A*31:01). Entry: EMGANFRADR
Response: ≤ 4.15

----------
Tgt: HLA-A*03:01
Test Name: IEDB peptide-MHC binding, purified MHC/competitive/radioactivity; filed as Kd, often an IC50 or EC50 that approximates it; bounds were set here for any values at or beyond the usual limits of such assays
Experimental Parameters: source organism: Lymphocytic choriomeningitis virus (strain Armstrong)
pKd: −log10 of the molar value.
Assay Metric: pKd

Residues: RCHDHYLCRH
Assay Metric: pKd
Recorded Result: ≤ 4.33

Request: Field: pKd (HLA-A*03:01). Entry: NACSANNSHH
Response: ≤ 4.15

----------
Tgt: HLA-A*69:01
Test Name: IEDB peptide-MHC binding, purified MHC/direct/fluorescence; filed as Kd, often an IC50 or EC50 that approximates it; bounds were set here for any values at or beyond the usual limits of such assays
Experimental Parameters: source organism: Orthomarburgvirus marburgense
pKd: −log10 of the molar value.
Assay Metric: pKd

Request: Field: pKd (HLA-A*69:01). Entry: LEHGLYPQL
Response: ≤ 4.70

----------
Tgt: HLA-A*02:06
Test Name: IEDB peptide-MHC binding, purified MHC/competitive/radioactivity; filed as Kd, often an IC50 or EC50 that approximates it; bounds were set here for any values at or beyond the usual limits of such assays
Experimental Parameters: source organism: Vaccinia virus WR
Lab note: compare Kd with 200 nM, writing Fulfilled if less and Not fulfilled if equal or more.

Residues: YLSGTDDEVI
Class: Not fulfilled
--
Residues: AMHDKKIDIL
Class: Not fulfilled
--
Residues: PVETLFGSYI
Class: Not fulfilled

Request: Answer whether the sequence FQESFYEDIA has Kd strictly less than 200 nM
Response: Not fulfilled

Request: For DLTALLSCI then?
Response: Not fulfilled

Request: For TLNTLITLIL then?
Response: Not fulfilled

Request: For ILSEKRKDTI then?
Response: Not fulfilled

Request: For FTDCRTIDA then?
Response: Not fulfilled

Request: For IMECSRMLDT then?
Response: Not fulfilled

Request: For STKADAVVA then?
Response: Not fulfilled

Request: For DMLLNVQTLI then?
Response: Not fulfilled
